# Read-out: Interleukin-8 (IL8), CXCL8 (gene 3576)
# assay: BSK_hDFCGF_IL8: BioMAP Diversity Plus: hDFCGF Assay for Interleukin-8 (IL8) Biomarker Activity (AID 2283058)
# reported-conditions: primary human foreskin fibroblasts; actives raise or lower the signal
Active and inactive are the calls of the source. Rule for the calls: active = hit-call score of the fitted dose curve at least 0.9, where 1 is the maximum; inactive = score below 0.9.
Select the matching outcome among active, inactive

{"columns": ["compound", "assigned-category"],
 "data": [
  ["CCN(CC)c1ccc(C=O)cc1", "inactive"],
  ["CC(C)(C)c1cc(CCC(=O)NCCCCCCNC(=O)CCc2cc(C(C)(C)C)c(O)c(C(C)(C)C)c2)cc(C(C)(C)C)c1O", "inactive"],
  ["FC(F)(F)C(F)(F)C(F)(F)C(F)(F)C(F)(F)C(F)(F)C(F)(F)CCI", "inactive"],
  ["OCCCCC(F)(F)C(F)(F)C(F)(F)C(F)(F)F", "inactive"],
  ["CCOC(C=C(C)CCC=C(C)C)OCC", "inactive"],
  ["O=C(c1ccccc1)c1ccc(O)cc1O", "inactive"],
  ["O=C=NCc1cccc(CN=C=O)c1", "inactive"],
  ["O=C(O)C(F)(F)OC(F)(F)C(F)(F)OC(F)(F)C(F)(F)OC(F)(F)F", "inactive"]
]}

INPUT: Any idea what this test logged for "CNS(=O)(=O)C(F)(F)C(F)(F)C(F)(F)C(F)(F)C(F)(F)C(F)(F)C(F)(F)C(F)(F)F" ?
OUTPUT: inactive

INPUT: Any idea what this test logged for "NCC(F)(F)C(F)(F)C(F)(F)C(F)(F)C(F)(F)C(F)(F)C(F)(F)C(F)(F)F" ?
OUTPUT: inactive

INPUT: Any idea what this test logged for "Cc1ccc(O)c(-n2nc3ccccc3n2)c1" ?
OUTPUT: inactive

INPUT: Any idea what this test logged for "Nc1cc([N+](=O)[O-])cc(Cl)c1O" ?
OUTPUT: inactive

INPUT: Any idea what this test logged for "Cc1cc(O)c(C(C)(C)C)cc1C(C)(C)C" ?
OUTPUT: inactive

INPUT: Any idea what this test logged for "NS(=O)(=O)C(F)(F)C(F)(F)C(F)(F)C(F)(F)C(F)(F)C(F)(F)F" ?
OUTPUT: inactive

INPUT: Any idea what this test logged for "CCN(CC)c1ccc(N=Nc2ccccc2)cc1" ?
OUTPUT: inactive

---

# Read-out: Monokine induced gamma interferon (MIG), CXCL9 (gene 4283)
# assay: BSK_SAg_MIG: BioMAP Diversity Plus: SAg Assay for Monokine induced gamma interferon (MIG) Biomarker Activity (AID 2283092)
# reported-conditions: primary human HUVEC with PBMC; actives raise or lower the signal
The source made the active and inactive calls. Rule for the calls: active = hit-call score of the fitted dose curve at least 0.9, where 1 is the maximum; inactive = score below 0.9.
Select the matching outcome among TRUE for active, FALSE for inactive

Consider the worked cases shown below.
{"columns": ["compound", "assigned-category"],
 "data": [
  ["O=C(O)C(F)(F)OC(F)(F)C(F)(F)OC(F)(F)C(F)(F)OC(F)(F)F", "FALSE"],
  ["Cc1ccc(S(=O)(=O)C(I)I)cc1", "TRUE"],
  ["CCN(CC)c1ccc2c(c1)Oc1cc(N(CC)CC)ccc1C21OC(=O)c2ccccc21", "FALSE"],
  ["CC1=CC2C3C=CC(C3)C2C1C (stereo unspecified)", "FALSE"],
  ["OC(O)C(F)(F)C(F)(F)F", "FALSE"]
]}

INPUT: Any idea what this test logged for "O=S(=O)(Cl)C(F)(F)C(F)(F)C(F)(F)C(F)(F)C(F)(F)C(F)(F)C(F)(F)C(F)(F)F" ?
OUTPUT: FALSE

INPUT: Any idea what this test logged for "NCC(F)(F)C(F)(F)C(F)(F)C(F)(F)C(F)(F)C(F)(F)C(F)(F)C(F)(F)F" ?
OUTPUT: FALSE
